Where do these numbers come from? They come from the RNAGym collection of RNA variant scans (doi:10.1126/science.aae0568).

B1: tRNA (parent)
chain: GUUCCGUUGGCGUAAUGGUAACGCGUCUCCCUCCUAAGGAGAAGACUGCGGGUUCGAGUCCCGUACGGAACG

variants of: B1; assay: yeast fitness relative to wild type (ratio to wild type); higher = fitter; tRNA-Arg(CCU), competitive growth, 37 C, YPD
Fewer inactive variants are shown than the library holds.
yeast fitness values for the variants below.

{"SEQUENCE_VARIANT": "G18U U26A C66A A70U", "COMPARATIVE_SIGN": "=", "yeast fitness": 0.536}
{"SEQUENCE_VARIANT": "C11U C24U C29G G38A A40C C61A A65G", "COMPARATIVE_SIGN": "≤", "yeast fitness": 0.5}
{"SEQUENCE_VARIANT": "C4U A20C C22U U47G G67A A69U", "COMPARATIVE_SIGN": "≤", "yeast fitness": 0.5}
{"SEQUENCE_VARIANT": "C5G G25C C62U", "COMPARATIVE_SIGN": "=", "yeast fitness": 0.721}
{"SEQUENCE_VARIANT": "C4G C29G G58A", "COMPARATIVE_SIGN": "=", "yeast fitness": 0.53}
{"SEQUENCE_VARIANT": "C31G G63C A65C", "COMPARATIVE_SIGN": "≤", "yeast fitness": 0.5}
{"SEQUENCE_VARIANT": "A15G G17A C33U", "COMPARATIVE_SIGN": "≤", "yeast fitness": 0.5}
{"SEQUENCE_VARIANT": "A14G G25A A36G A42U G68C", "COMPARATIVE_SIGN": "=", "yeast fitness": 0.576}
{"SEQUENCE_VARIANT": "C5U G17A A36U U47A C66U", "COMPARATIVE_SIGN": "=", "yeast fitness": 0.58}
{"SEQUENCE_VARIANT": "C5U G25A C49U", "COMPARATIVE_SIGN": "=", "yeast fitness": 0.802}
{"SEQUENCE_VARIANT": "G6C C22A A57U", "COMPARATIVE_SIGN": "≤", "yeast fitness": 0.5}
{"SEQUENCE_VARIANT": "A45G G58A A65U", "COMPARATIVE_SIGN": "=", "yeast fitness": 0.741}
{"SEQUENCE_VARIANT": "G12A G52A G68A", "COMPARATIVE_SIGN": "≤", "yeast fitness": 0.5}
{"SEQUENCE_VARIANT": "U7C A57U", "COMPARATIVE_SIGN": "=", "yeast fitness": 0.749}
{"SEQUENCE_VARIANT": "C4G C24G G58C", "COMPARATIVE_SIGN": "≤", "yeast fitness": 0.5}
{"SEQUENCE_VARIANT": "C5A C30U A40U", "COMPARATIVE_SIGN": "=", "yeast fitness": 0.621}
{"SEQUENCE_VARIANT": "A14U A37G G44C A45C G50A C55G", "COMPARATIVE_SIGN": "=", "yeast fitness": 0.594}
{"SEQUENCE_VARIANT": "C4U C22G A36C C62G A70C", "COMPARATIVE_SIGN": "≤", "yeast fitness": 0.5}
{"SEQUENCE_VARIANT": "G52C U59A", "COMPARATIVE_SIGN": "=", "yeast fitness": 0.598}
{"SEQUENCE_VARIANT": "U8A A14G C49G", "COMPARATIVE_SIGN": "=", "yeast fitness": 0.538}
{"SEQUENCE_VARIANT": "G39C C55A", "COMPARATIVE_SIGN": "=", "yeast fitness": 0.643}
{"SEQUENCE_VARIANT": "U64C", "COMPARATIVE_SIGN": "=", "yeast fitness": 0.985}
{"SEQUENCE_VARIANT": "G6C U13C G50A", "COMPARATIVE_SIGN": "≤", "yeast fitness": 0.5}
{"SEQUENCE_VARIANT": "G12C G25C C66G", "COMPARATIVE_SIGN": "≤", "yeast fitness": 0.5}
{"SEQUENCE_VARIANT": "C24U A45G A69U", "COMPARATIVE_SIGN": "=", "yeast fitness": 0.888}
{"SEQUENCE_VARIANT": "C46U A65U A69U", "COMPARATIVE_SIGN": "=", "yeast fitness": 0.737}
{"SEQUENCE_VARIANT": "G38A G58C C66U", "COMPARATIVE_SIGN": "=", "yeast fitness": 0.588}
{"SEQUENCE_VARIANT": "A14C A45U A69U", "COMPARATIVE_SIGN": "=", "yeast fitness": 0.619}
{"SEQUENCE_VARIANT": "A36G U54C C61U C66U", "COMPARATIVE_SIGN": "≤", "yeast fitness": 0.5}
{"SEQUENCE_VARIANT": "G17C U47G G67A A69U", "COMPARATIVE_SIGN": "=", "yeast fitness": 0.55}
{"SEQUENCE_VARIANT": "G9C G44A C60G", "COMPARATIVE_SIGN": "≤", "yeast fitness": 0.5}
{"SEQUENCE_VARIANT": "U2G U16G C27A A36C G51A", "COMPARATIVE_SIGN": "=", "yeast fitness": 0.536}
{"SEQUENCE_VARIANT": "A20G A43U U64C", "COMPARATIVE_SIGN": "=", "yeast fitness": 0.704}
{"SEQUENCE_VARIANT": "U7C A43G U47C U59C", "COMPARATIVE_SIGN": "≤", "yeast fitness": 0.5}
{"SEQUENCE_VARIANT": "A21U U32C A45U G67C", "COMPARATIVE_SIGN": "≤", "yeast fitness": 0.5}
{"SEQUENCE_VARIANT": "C4U G17C C49A", "COMPARATIVE_SIGN": "=", "yeast fitness": 0.55}
{"SEQUENCE_VARIANT": "U47C C60G A69C", "COMPARATIVE_SIGN": "≤", "yeast fitness": 0.5}
{"SEQUENCE_VARIANT": "U16G C31G C55U C61A C66U", "COMPARATIVE_SIGN": "≤", "yeast fitness": 0.5}
{"SEQUENCE_VARIANT": "A14U U16A C22U C24A G67A A69C", "COMPARATIVE_SIGN": "=", "yeast fitness": 0.67}
{"SEQUENCE_VARIANT": "C5G G18A G25A C61U A69G", "COMPARATIVE_SIGN": "=", "yeast fitness": 0.574}
{"SEQUENCE_VARIANT": "C5A G12A C33U", "COMPARATIVE_SIGN": "≤", "yeast fitness": 0.5}
{"SEQUENCE_VARIANT": "A20U U59A", "COMPARATIVE_SIGN": "=", "yeast fitness": 0.847}
{"SEQUENCE_VARIANT": "U26A C31G A37G G63A", "COMPARATIVE_SIGN": "≤", "yeast fitness": 0.5}
{"SEQUENCE_VARIANT": "C11A C46U U64C", "COMPARATIVE_SIGN": "≤", "yeast fitness": 0.5}
{"SEQUENCE_VARIANT": "C5U A43G C49G A69C", "COMPARATIVE_SIGN": "≤", "yeast fitness": 0.5}
{"SEQUENCE_VARIANT": "U32C G68U", "COMPARATIVE_SIGN": "=", "yeast fitness": 0.877}
